Provenance of the data: the supplement of paper PMC10307832

Overview of recorded relative viability for various molecules
Tested on: NCI-H1793
Experiment: relative viability (nuclei count vs DMSO), 5 days (fraction); higher = more cells survive
Conditions: first compound 1 µM
value_type: relative viability

>>> recorded_value("O=c1cc(N2CCOCC2)oc2c(-c3cccc4c3sc3ccccc34)cccc12 + NC(=O)Nc1cc(-c2cccc(F)c2)sc1C(=O)N[C@H]1CCCNC1 [AZD7762] (partner 0.2 µM)")
0.464
>>> recorded_value("CCN(CC)CCCCNc1ncc2cc(-c3cc(OC)cc(OC)c3)c(NC(=O)NC(C)(C)C)nc2n1 + COc1cc2c(Oc3ccc(NC(=O)C4(C(=O)Nc5ccc(F)cc5)CC4)cc3F)ccnc2cc1OCCCN1CCOCC1 [Foretinib] (partner 0.25 µM)")
0.403
>>> recorded_value("CCN(CC)CCCCNc1ncc2cc(-c3cc(OC)cc(OC)c3)c(NC(=O)NC(C)(C)C)nc2n1 + Cc1nc(Nc2ncc(C(=O)Nc3c(C)cccc3Cl)s2)cc(N2CCN(CCO)CC2)n1 [Dasatinib] (partner 0.075 µM)")
0.271
>>> recorded_value("O=c1cc(N2CCOCC2)oc2c(-c3cccc4c3sc3ccccc34)cccc12 + O=C(CCCCCCC(=O)Nc1ccccc1)NO [Vorinostat] (partner 1 µM)")
0.658
>>> recorded_value("CCN(CC)CCCCNc1ncc2cc(-c3cc(OC)cc(OC)c3)c(NC(=O)NC(C)(C)C)nc2n1 + Nc1nc2[nH]cc(CCc3ccc(C(=O)N[C@@H](CCC(=O)O)C(=O)O)cc3)c2c(=O)[nH]1 [Pemetrexed] (partner 0.2 µM)")
0.548
